Every entry's value here was drawn from patent US11141452B2.

test system: MOR; assay: Guinea pig isolated ileum (GPI) functional assay; format: cell-based
Non-standard residues stand in square brackets, D forms with d. Residues, ends and D or L forms follow the SMILES beside them. *: point of attachment. NH(3,5-(CF3)2-benzyl) = FC(F)(F)c1cc(CN*)cc(C(F)(F)F)c1; NMeBn(3,5-(CF3)2) = CN(Cc1cc(C(F)(F)F)cc(C(F)(F)F)c1)*; NMePhe(4-F) = CN[C@@H](Cc1ccc(F)cc1)C(=O)O; Dmt = Cc1cc(O)cc(C)c1C[C@H](N)C(=O)O; NMeF = CN[C@@H](Cc1ccccc1)C(=O)O
Field: GPI/MVD IC50 ratio. Provide a value for each of the compounds that follow.

Known results for compounds:
{"Compound": "CC(C)C[C@H](NC(=O)[C@@H]1CCCN1C(=O)CCCCCNC(=O)[C@H](Cc1ccccc1)N(C)C(=O)CNC(=O)[C@@H](C)NC(=O)[C@@H](N)Cc1ccc(O)cc1)C(=O)N[C@@H](Cc1c[nH]c2ccccc12)C(=O)NCc1cc(C(F)(F)F)cc(C(F)(F)F)c1", "Meas Value": "7/1"}
{"Compound": "CC(C)C[C@H](NC(=O)[C@@H]1CCCN1C(=O)CNC(=O)[C@H](Cc1ccccc1)N(C)C(=O)CNC(=O)[C@@H](C)NC(=O)[C@@H](N)Cc1ccc(O)cc1)C(=O)N[C@@H](Cc1c[nH]c2ccccc12)C(=O)NCc1cc(C(F)(F)F)cc(C(F)(F)F)c1 [AKG113] (H-Y[dA]G[NMeF]GPLW-{NH(3,5-(CF3)2-benzyl)})", "Meas Value": "2/1"}
{"Compound": "CC(C)C[C@H](NC(=O)[C@@H]1CCCN1C(=O)c1ccc(CNC(=O)[C@H](Cc2ccccc2)N(C)C(=O)CNC(=O)[C@@H](C)NC(=O)[C@@H](N)Cc2ccc(O)cc2)cc1)C(=O)N[C@@H](Cc1c[nH]c2ccccc12)C(=O)NCc1cc(C(F)(F)F)cc(C(F)(F)F)c1", "Meas Value": "10/1"}
{"Compound": "CC(C)C[C@H](NC(=O)[C@@H]1CCCN1C(=O)[C@H](CO)NC(=O)[C@H](Cc1ccccc1)N(C)C(=O)CNC(=O)[C@@H](C)NC(=O)[C@@H](N)Cc1ccc(O)cc1)C(=O)N[C@@H](Cc1c[nH]c2ccccc12)C(=O)NCc1cc(C(F)(F)F)cc(C(F)(F)F)c1 [AKG126] (H-Y[dA]G[NMeF]SPLW-{NH(3,5-(CF3)2-benzyl)})", "Meas Value": "9/1"}
{"Compound": "CC(C)C[C@H](NC(=O)[C@@H]1CCCN1C(=O)CNC(=O)[C@H](CO)NC(=O)[C@H](Cc1ccccc1)N(C)C(=O)CNC(=O)[C@@H](C)NC(=O)[C@@H](N)Cc1ccc(O)cc1)C(=O)N[C@@H](Cc1c[nH]c2ccccc12)C(=O)NCc1cc(C(F)(F)F)cc(C(F)(F)F)c1 [AKG-CRA-136] (H-Y[dA]G[NMeF]SGPLW-{NH(3,5-(CF3)2-benzyl)})", "Meas Value": "5/1"}
{"Compound": "CC(C)C[C@H](NC(=O)[C@@H]1CCCN1C(=O)[C@H](Cc1ccc(O)cc1)NC(=O)CNC(=O)[C@H](Cc1ccccc1)NC(=O)[C@@H](C)NC(=O)[C@@H](N)Cc1ccc(O)cc1)C(=O)N[C@@H](Cc1c[nH]c2ccccc12)C(=O)N(C)Cc1cc(C(F)(F)F)cc(C(F)(F)F)c1 [QXP04] (H-Y[dA]FGYPLW-{NMeBn(3,5-(CF3)2)})", "Meas Value": "23/1"}
{"Compound": "CC(C)C[C@H](NC(=O)[C@@H]1CCCN1C(=O)Cc1ccc(CNC(=O)[C@H](Cc2ccccc2)N(C)C(=O)CNC(=O)[C@@H](C)NC(=O)[C@@H](N)Cc2ccc(O)cc2)cc1)C(=O)N[C@@H](Cc1c[nH]c2ccccc12)C(=O)NCc1cc(C(F)(F)F)cc(C(F)(F)F)c1", "Meas Value": "15/1"}
{"Compound": "CC(C)C[C@H](NC(=O)[C@@H]1CCCN1C(=O)c1ccc(NC(=O)[C@H](Cc2ccccc2)N(C)C(=O)CNC(=O)[C@@H](C)NC(=O)[C@@H](N)Cc2ccc(O)cc2)cc1)C(=O)N[C@@H](Cc1c[nH]c2ccccc12)C(=O)NCc1cc(C(F)(F)F)cc(C(F)(F)F)c1", "Meas Value": "2/1"}
{"Compound": "CC(C)C[C@H](NC(=O)[C@@H]1CCCN1C(=O)[C@H](CO)NC(=O)[C@H](Cc1ccc(F)cc1)N(C)C(=O)CNC(=O)[C@@H](C)NC(=O)[C@@H](N)Cc1ccc(O)cc1)C(=O)N[C@@H](Cc1c[nH]c2ccccc12)C(=O)NCc1cc(C(F)(F)F)cc(C(F)(F)F)c1 [AKG134] (H-Y[dA]G[NMePhe(4-F)]SPLW-{NH(3,5-(CF3)2-benzyl)})", "Meas Value": "21/1"}
{"Compound": "Cc1cc(O)cc(C)c1C[C@H](N)C(=O)N[C@H](C)C(=O)NCC(=O)N[C@@H](Cc1ccccc1)C(=O)N1CCC[C@H]1C(=O)N[C@@H](CC(C)C)C(=O)N[C@@H](Cc1c[nH]c2ccccc12)C(=O)NCc1cc(C(F)(F)F)cc(C(F)(F)F)c1", "Meas Value": "26/1"}

List reported GPI/MVD IC50 ratio for each of these compounds:
1. CC(C)C[C@H](NC(=O)[C@@H]1CCCN1C(=O)CCNC(=O)[C@H](Cc1ccccc1)N(C)C(=O)CNC(=O)[C@@H](C)NC(=O)[C@@H](N)Cc1ccc(O)cc1)C(=O)N[C@@H](Cc1c[nH]c2ccccc12)C(=O)NCc1cc(C(F)(F)F)cc(C(F)(F)F)c1
2. CC(C)C[C@H](NC(=O)[C@@H]1CCCN1C(=O)Cc1ccc(NC(=O)[C@H](Cc2ccccc2)N(C)C(=O)CNC(=O)[C@@H](C)NC(=O)[C@@H](N)Cc2ccc(O)cc2)cc1)C(=O)N[C@@H](Cc1c[nH]c2ccccc12)C(=O)NCc1cc(C(F)(F)F)cc(C(F)(F)F)c1
3. Cc1cc(O)cc(C)c1C[C@H](N)C(=O)N[C@H](C)C(=O)NCC(=O)N(C)[C@@H](Cc1ccccc1)C(=O)N[C@@H](CO)C(=O)NCC(=O)N1CCC[C@H]1C(=O)N[C@@H](CC(C)C)C(=O)N[C@@H](Cc1c[nH]c2ccccc12)C(=O)NCc1cc(C(F)(F)F)cc(C(F)(F)F)c1 [AKG-CRA-137] (H-[Dmt][dA]G[NMeF]SGPLW-{NH(3,5-(CF3)2-benzyl)})
4. CC(C)C[C@H](NC(=O)[C@@H]1CCCN1C(=O)CNC(=O)[C@H](Cc1ccc(F)cc1)N(C)C(=O)CNC(=O)[C@@H](C)NC(=O)[C@@H](N)Cc1ccc(O)cc1)C(=O)N[C@@H](Cc1c[nH]c2ccccc12)C(=O)NCc1cc(C(F)(F)F)cc(C(F)(F)F)c1 [AKG131] (H-Y[dA]G[NMePhe(4-F)]GPLW-{NH(3,5-(CF3)2-benzyl)})

[out]
1. 10/1
2. 1/1
3. 1/2
4. 2/1

====

Exercise: state measured Ki for each of the molecules provided.
target: hNK1 (Homo sapiens, UniProt P25103); construct: expressed in transfected cells; host or cells: CHO; test: hNK1/CHO cell membrane radioligand binding assay ([3H]SP); settings: Ki^hNK1 (nM), hNK1/CHO membranes, [3H]SP
Sequence (P25103 whole entry): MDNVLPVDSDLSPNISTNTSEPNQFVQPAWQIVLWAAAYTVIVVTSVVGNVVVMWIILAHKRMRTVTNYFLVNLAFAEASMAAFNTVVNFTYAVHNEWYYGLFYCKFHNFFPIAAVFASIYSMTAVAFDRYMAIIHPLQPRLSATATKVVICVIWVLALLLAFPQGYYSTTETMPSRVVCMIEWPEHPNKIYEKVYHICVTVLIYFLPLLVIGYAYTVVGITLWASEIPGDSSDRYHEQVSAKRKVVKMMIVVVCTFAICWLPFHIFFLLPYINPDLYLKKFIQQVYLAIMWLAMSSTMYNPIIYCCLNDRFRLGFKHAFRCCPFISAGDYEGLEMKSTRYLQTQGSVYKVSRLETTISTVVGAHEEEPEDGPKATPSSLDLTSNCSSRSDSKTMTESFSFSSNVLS
Residues, ends and D or L forms follow the SMILES beside them. *: point of attachment. NH(3,5-(CF3)2-benzyl) = FC(F)(F)c1cc(CN*)cc(C(F)(F)F)c1
Write the numeric value and follow it with the unit.

{"Molecule": "CC(C)C[C@H](NC(=O)[C@@H]1CCCN1C(=O)[C@H](Cc1ccccc1)NC(=O)[C@H](Cc1c[nH]c2ccccc12)NC(=O)[C@@H]1CCCN1C(=O)[C@@H](N)Cc1ccc(O)cc1)C(=O)N[C@@H](Cc1c[nH]c2ccccc12)C(=O)NCc1cc(C(F)(F)F)cc(C(F)(F)F)c1 [AKG221] (H-YPWFPLW-{NH(3,5-(CF3)2-benzyl)})", "Subject Of Test": "hNK1 (Homo sapiens, UniProt P25103)", "Ki": "3.34 nM"}

Attention now turns to another entry.
[in] Give reported Ki value for CC(C)C[C@H](NC(=O)[C@@H]1CCCN1C(=O)[C@H](CCC(N)=O)NC(=O)[C@H](Cc1ccccc1)NC(=O)CNC(=O)[C@@H](C)NC(=O)[C@@H](N)Cc1ccc(O)cc1)C(=O)N[C@@H](Cc1c[nH]c2ccccc12)C(=O)NCc1cc(C(F)(F)F)cc(C(F)(F)F)c1 [AKG105]
[out] 1 nM

====

biological target: hNK1 (Homo sapiens); construct: expressed in transfected cells; host or cells: CHO; assay: hNK1/CHO cell membrane radioligand binding assay ([3H]SP); conditions: Ki^hNK1 (nM), hNK1/CHO membranes, [3H]SP
Non-standard residues stand in square brackets, D forms with d. Residues, ends and D or L forms follow the SMILES beside them. *: point of attachment. NH(3,5-(CF3)2-benzyl) = FC(F)(F)c1cc(CN*)cc(C(F)(F)F)c1; NMeF = CN[C@@H](Cc1ccccc1)C(=O)O; Orn = NCCC[C@H](N)C(=O)O
Kindly state Ki for each of the entries shown.
Give bare numbers, in nM.

{"Compound": "CC(C)C[C@H](NC(=O)[C@@H]1CCCN1C(=O)[C@@H](CCC(N)=O)NC(=O)[C@H](Cc1ccccc1)NC(=O)CNC(=O)[C@@H](C)NC(=O)[C@@H](N)Cc1ccc(O)cc1)C(=O)N[C@@H](Cc1c[nH]c2ccccc12)C(=O)NCc1cc(C(F)(F)F)cc(C(F)(F)F)c1", "Ki / nM": 2.1}
{"Compound": "CC(C)C[C@H](NC(=O)[C@@H]1CCCN1C(=O)[C@H](CCCN)NC(=O)[C@H](Cc1ccccc1)N(C)C(=O)CNC(=O)[C@@H](C)NC(=O)[C@@H](N)Cc1ccc(O)cc1)C(=O)N[C@@H](Cc1c[nH]c2ccccc12)C(=O)NCc1cc(C(F)(F)F)cc(C(F)(F)F)c1 [AKG173] (H-Y[dA]G[NMeF][Orn]PLW-{NH(3,5-(CF3)2-benzyl)})", "Ki / nM": 15.5}

Now let's try a different one.
[in] Please list Ki recorded for the compound CC(C)C[C@H](NC(=O)[C@@H]1CCCN1C(=O)CNC(=O)[C@H](CCC(N)=O)NC(=O)[C@H](Cc1ccccc1)N(C)C(=O)CNC(=O)[C@@H](C)NC(=O)[C@@H](N)Cc1ccc(O)cc1)C(=O)N[C@@H](Cc1c[nH]c2ccccc12)C(=O)NCc1cc(C(F)(F)F)cc(C(F)(F)F)c1 [AKG-SK-145] (H-Y[dA]G[NMeF]QGPLW-{NH(3,5-(CF3)2-benzyl)})
[out] 7.5
